meta.source: ChEMBL document CHEMBL2321863

subject_of_test: Glycogen synthase kinase 3 beta (Sus scrofa, UniProt B2LUN4)
Sequence (B2LUN4 whole entry): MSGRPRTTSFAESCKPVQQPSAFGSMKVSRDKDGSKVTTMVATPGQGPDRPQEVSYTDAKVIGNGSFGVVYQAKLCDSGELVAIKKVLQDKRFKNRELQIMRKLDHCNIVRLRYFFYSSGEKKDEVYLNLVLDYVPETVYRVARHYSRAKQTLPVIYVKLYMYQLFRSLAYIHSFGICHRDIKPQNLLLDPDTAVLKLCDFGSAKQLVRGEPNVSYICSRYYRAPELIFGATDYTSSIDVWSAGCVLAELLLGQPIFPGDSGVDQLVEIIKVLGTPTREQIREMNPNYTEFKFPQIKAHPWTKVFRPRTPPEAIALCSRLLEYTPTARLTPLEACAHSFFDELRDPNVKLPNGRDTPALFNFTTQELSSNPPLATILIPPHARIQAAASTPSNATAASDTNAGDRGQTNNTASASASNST
pIC50: −log10 of the molar value.
quantity: pIC50

[Q] Record request: pIC50 value, item Cn1c(O)c(-c2[nH]c3ccccc3c2N=O)c2cccc(Br)c21
[A] < 5.00
